Target: BACE1 (Homo sapiens)
Assay: In Vitro Enzymatic BACE FRET (Fluorescence Resonance Energy Transfer) Assay
Type: biochemical
Settings: Table IV, class symbols; read-out: BACE1 FRET assay
measured attribute: IC50

In the examples that follow, each entry is paired with its recorded IC50.
smiles text	IC50
CC(C)(C)COc1ccc2c(c1)[C@]1(COC(N)=N1)c1cc(C(=O)N3CCC3)ccc1O2	0.1 to 1 µM
Cc1cc(-c2ccc3c(c2)[C@]2(COC(N)=N2)c2cc(-c4cccnc4F)ccc2O3)on1	< 0.1 µM
COc1ccc2c(c1)[C@]1(COC(N)=N1)c1cc(NC(=O)C(F)(F)F)ccc1O2	0.1 to 1 µM

Q: Give the observed IC50 of `Cc1ccc(-c2ccc3c(c2)[C@]2(COC(N)=N2)c2cc(-c4cncnc4)ccc2O3)s1` for BACE1 (Homo sapiens).
A: < 0.1 µM

====

The following compounds are listed with their measured pIC50 values.
Target: BACE1 (Homo sapiens)
Assay: In Vitro BACE Cell-based Assay (HEK cell assay): Aβ40 in conditioned medium of cells stably expressing Amyloid Precursor Protein, sandwich ELISA
Conditions: HEK cell-based assay, Aβ40 in conditioned medium, IC50 class symbols; read-out: HEK cell assay
pIC50: −log10 of the molar value.

compound	measured
NC1=N[C@@]2(CO1)c1cc(-c3cccnc3)ccc1Oc1ccc(N3CCOCC3)nc12	6.00 to 7.00
COc1ccc2c(c1)[C@@]1(COC(N)=N1)c1cc(Br)cc(F)c1O2 [compound 378]	< 5.30
N#Cc1cccc(-c2cc3c(cn2)Oc2ccc(-c4cccnc4F)cc2[C@@]32COC(N)=N2)c1	> 7.00
CC(C)(C)/C=C/c1cnc2c(c1)[C@]1(COC(N)=N1)c1cc(-c3cncnc3)ccc1O2	> 7.00
CC(C)C[C@H]1CN(c2ccc3c(c2)[C@]2(COC(N)=N2)c2cc(-c4cccnc4)ccc2O3)CCO1	6.00 to 7.00

Q: Report pIC50 for `Cc1cc(-c2ccc3c(n2)[C@]2(COC(N)=N2)c2cc(-c4cccnc4F)ccc2O3)ccn1`
A: > 7.00

Q: Report pIC50 for `CC(C)(C#N)COc1cnc2c(c1)[C@]1(COC(N)=N1)c1cc(-c3ccccc3)ccc1O2`
A: 6.00 to 7.00

Q: Report pIC50 for `CC(C)(C)COc1cnc2c(c1)[C@]1(COC(N)=N1)c1cc(-c3cccc(C#N)c3)ccc1O2`
A: > 7.00

Q: Report pIC50 for `COCC(=O)Nc1ccc2c(c1)[C@@]1(COC(N)=N1)c1cc(C#CC(C)(C)C)ccc1O2`
A: 6.00 to 7.00

Q: Report pIC50 for `NC1=N[C@@]2(CO1)c1cc(-c3cccnc3)ccc1Oc1ccc(Cl)nc12`
A: 5.30 to 6.00

====

Biological target: BACE1 (Homo sapiens, UniProt P56817)
Sequence (P56817 46-501, species assumed): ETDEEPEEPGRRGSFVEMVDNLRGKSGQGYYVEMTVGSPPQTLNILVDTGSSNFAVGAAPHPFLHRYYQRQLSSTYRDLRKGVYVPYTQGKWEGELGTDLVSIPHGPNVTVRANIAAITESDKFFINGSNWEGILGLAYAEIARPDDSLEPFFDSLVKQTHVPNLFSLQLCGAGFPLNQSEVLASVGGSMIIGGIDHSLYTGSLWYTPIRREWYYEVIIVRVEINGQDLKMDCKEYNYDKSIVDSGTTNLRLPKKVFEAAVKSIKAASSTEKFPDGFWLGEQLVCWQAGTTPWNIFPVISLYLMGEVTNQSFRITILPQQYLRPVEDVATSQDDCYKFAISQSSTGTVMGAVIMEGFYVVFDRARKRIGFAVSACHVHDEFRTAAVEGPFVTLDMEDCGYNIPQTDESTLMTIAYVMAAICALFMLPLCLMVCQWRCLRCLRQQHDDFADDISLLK
Assay: In Vitro BACE Cell-based Assay (HEK cell assay): Aβ40 in conditioned medium of cells stably expressing Amyloid Precursor Protein, sandwich ELISA
Conditions: Table IV, class symbols; read-out: HEK cell assay
The following compounds are listed with their measured IC50 values.

In the examples that follow, each entry is paired with its recorded IC50.
compound	assayed target	IC50
CC(=O)c1sccc1-c1ccc2c(c1)[C@@]1(COC(N)=N1)c1cc(OCC(C)(C)C)ccc1O2	BACE1 (Homo sapiens, UniProt P56817)	> 5000 nM
Cc1c(OCC(C)(C)O)ccc2c1[C@]1(COC(N)=N1)c1cc(-c3cccnc3)ccc1O2	BACE1 (Homo sapiens, UniProt P56817)	< 100 nM
CC(C)Oc1ccc(-c2cc3c(cn2)Oc2ccc(-c4cccnc4)cc2[C@@]32COC(N)=N2)cc1	BACE1 (Homo sapiens, UniProt P56817)	100 to 1000 nM
NC1=N[C@@]2(CO1)c1cc(-c3cccnc3)ccc1Oc1ccc(-c3csc(C4CC4)n3)cc12	BACE1 (Homo sapiens, UniProt P56817)	100 to 1000 nM
CC(C)(O)Cc1ccc2c(c1)[C@]1(COC(N)=N1)c1cc(-c3cccnc3)ccc1O2	BACE1 (Homo sapiens, UniProt P56817)	100 to 1000 nM

Q: Give the observed IC50 of `CC1(COc2ccc3c(c2)[C@]2(COC(N)=N2)c2cc(-c4cncnc4)cc(F)c2O3)COC1` for BACE1 (Homo sapiens, UniProt P56817).
A: 100 to 1000 nM

Q: Give the observed IC50 of NC1=NC2(CO1)c1cc(-c3cncnc3)ccc1Oc1c(F)cc(C3=CCOCC3)cc12 (stereo in doubt) for BACE1 (Homo sapiens, UniProt P56817).
A: < 100 nM

====

The following molecules are listed with their measured pIC50 values.
Biological target: BACE1 (Homo sapiens)
Experiment: In Vitro BACE Cell-based Assay (HEK cell assay): Aβ40 in conditioned medium of cells stably expressing Amyloid Precursor Protein, sandwich ELISA
Conditions: Table IV, class symbols; read-out: HEK cell assay
pIC50: −log10 of the molar value.

molecule	pIC50
CC(C)(C)COc1ccc2c(c1)[C@]1(COC(N)=N1)c1cc(-c3cccc(S(C)(=O)=O)c3)ccc1O2	5.30 to 6.00
NC1=N[C@]2(CO1)c1ccccc1Oc1ncc(-c3cncnc3)cc12	6.00 to 7.00
NC1=N[C@@]2(CO1)c1cc(-c3ccccc3)ccc1Oc1ncc(C3=CCOCC3)cc12	> 7.00
NC1=N[C@@]2(CO1)c1cc(-c3cncnc3)ccc1Oc1ccc(-c3cccc(C(F)(F)F)c3)cc12	6.00 to 7.00

Q: Report pIC50 for `Cc1nc(C)c(-c2ccc3c(c2)[C@@]2(COC(N)=N2)c2cc(OCC(C)(C)C)ccc2O3)s1`
A: < 5.30

Q: Report pIC50 for `NC1=N[C@]2(CO1)c1cc(-c3cccnc3F)ccc1Oc1c(F)cccc12`
A: 6.00 to 7.00

Q: Report pIC50 for `CC(C)(O)C#Cc1cnc2c(c1)[C@]1(COC(N)=N1)c1cc(-c3cncnc3)ccc1O2`
A: > 7.00

Q: Report pIC50 for CC(C)C(O)COc1ccc2c(c1)[C@]1(COC(N)=N1)c1cc(-c3cccnc3)ccc1O2 (some centres unmarked)
A: 6.00 to 7.00

====

Molecular target: BACE1 (Homo sapiens, UniProt P56817)
Test: In Vitro BACE Cell-based Assay (HEK cell assay): Aβ40 in conditioned medium of cells stably expressing Amyloid Precursor Protein, sandwich ELISA
Details: Table III; IC50's in uM ranges; read-out: HEK cell assay
measured attribute: IC50

smiles text	assayed target	measured
CC(C)(O)COc1ccc2c(c1)[C@]1(COC(N)=N1)c1cc(-c3ccc(F)nc3)ccc1O2	BACE1 (Homo sapiens, UniProt P56817)	< 0.1 µM
CC(C)(F)COc1ccc2c(c1)[C@]1(COC(N)=N1)c1cc(-c3cccnc3)ccc1O2	BACE1 (Homo sapiens, UniProt P56817)	< 0.1 µM
NC1=N[C@@]2(CO1)c1cc(C#CC3CC3)ccc1Oc1ccc(Oc3ccccn3)cc12	BACE1 (Homo sapiens, UniProt P56817)	1 to 5 µM

Q: Report IC50 for `CC(C)(O)C#Cc1ccc2c(c1)C1(COC(N)=N1)c1cc(C#CC(C)(C)O)ccc1O2`
A: 1 to 5 µM

====

Target: BACE1 (Homo sapiens)
Assay: In Vitro Enzymatic BACE FRET (Fluorescence Resonance Energy Transfer) Assay
Assay type: biochemical
Details: Table IV, class symbols; read-out: BACE1 FRET assay
pIC50: −log10 of the molar value.
measured attribute: pIC50

In the examples that follow, each entry is paired with its recorded pIC50.
compound	measured
NC1=N[C@@]2(CO1)c1cc(-c3cccnc3F)ccc1Oc1ccc(N3CCOCC3)cc12 [Example 289, 2,2,2-trifluoroacetate]	> 7.00
COc1ccc(-c2ccc3c(c2)[C@@]2(COC(N)=N2)c2cc(OCC(C)(C)C)ccc2O3)c(OC)n1 [compound 909]	6.00 to 7.00
COc1cc(F)c2c(c1)[C@]1(COC(N)=N1)c1cc(-c3cncnc3)cnc1O2 [compound 584]	5.30 to 6.00
COC(C)(C)C#Cc1cc(F)c2c(c1)[C@]1(COC(N)=N1)c1cc(-c3ccc(F)nc3)ccc1O2 [compound 646]	> 7.00
NC1=N[C@@]2(CO1)c1ccccc1Oc1ccc(-c3cccnc3)cc12 [compound 640]	5.30 to 6.00
CN(C)CCOc1ccc2c(c1)[C@]1(COC(N)=N1)c1cc(-c3cccnc3)ccc1O2 [compound 886]	6.00 to 7.00
NC1=N[C@@]2(CO1)c1cc(-c3ccc4nccn4c3)ccc1Oc1ncccc12 [compound 572]	< 5.30
CC(C)C(C)(O)COc1ccc2c(c1)[C@]1(COC(N)=N1)c1cc(-c3cccnc3)ccc1O2 (stereo partly drawn) [compound 867]	> 7.00

Q: Report pIC50 for NC1=N[C@@]2(CO1)c1cc(-c3cncnc3)ccc1Oc1ccc(-c3cccc(OC(F)(F)F)c3)cc12 [compound 839]
A: > 7.00

Q: Report pIC50 for Cc1c(OCC(C)(C)O)ccc2c1[C@]1(COC(N)=N1)c1cc(-c3cccnc3)ccc1O2 [compound 907]
A: > 7.00

Q: Report pIC50 for COC(C)(C)C#Cc1cc(F)c2c(c1)[C@@]1(COC(N)=N1)c1cc(-c3ccc(F)nc3)ccc1O2 [compound 645]
A: 6.00 to 7.00
